Where do the numbers come from? From patent US10561619B2.

Assay: Evaluation of oil solubility of dutasteride
Assay type: physicochemical
Conditions: glycerol tricaprylate (oil), oil or lipid, thermodynamic from solid; in glycerol tricaprylate; 25° C., stirring 24 hours
recorded-endpoint: solubility at 24 h (µg/mL)
Lab book: enter the figure in µg/mL, no units written.

I'd like to know its solubility at 24 h. The compound in question is C[C@]12C=CC(=O)N[C@@H]1CC[C@@H]1[C@@H]2CC[C@]2(C)[C@@H](C(=O)Nc3cc(C(F)(F)F)ccc3C(F)(F)F)CC[C@@H]12 [dutasteride]
840

----------
Assay: Evaluation of oil solubility of dutasteride
Format: physicochemical
Conditions: propylene glycol dicaprylocaprate (oil), oil or lipid, thermodynamic from solid; in propylene glycol dicaprylroccaprate; 25° C., stirring 24 hours
Method: In order to measure the solubility of dutasteride in oil, the solubility of dutasteride in glycerol tricaprylate, glycerol tricaprylate/caprate, glycerol tricaprylate/caprate/linoleate, propylene glycol dicaprylocaprate, propylene glycol dicaprate, propylene glycol dicaprylate and propylene glycol monolaurate was measured. In a 10 mL vial, a magnetic bar was placed. […]
recorded-endpoint: solubility at 24 h (µg/mL)
Lab book: enter the figure in µg/mL, no units written.

I'd like to know its solubility at 24 h. The molecule in question is C[C@]12C=CC(=O)N[C@@H]1CC[C@@H]1[C@@H]2CC[C@]2(C)[C@@H](C(=O)Nc3cc(C(F)(F)F)ccc3C(F)(F)F)CC[C@@H]12 [dutasteride]
970

----------
Test: Evaluation of oil solubility of dutasteride
Format: physicochemical
Settings: glycerol tricaprylate/caprate/linoleate (oil), oil or lipid, thermodynamic from solid; in glycerol tricaprylate/caprate/linoleate; 25° C., stirring 24 hours
recorded-endpoint: solubility at 24 h (µg/mL)
Lab book: enter the figure in µg/mL, no units written.

I'd like to know its solubility at 24 h. The molecule in question is C[C@]12C=CC(=O)N[C@@H]1CC[C@@H]1[C@@H]2CC[C@]2(C)[C@@H](C(=O)Nc3cc(C(F)(F)F)ccc3C(F)(F)F)CC[C@@H]12 [dutasteride]
220
